assayProtocol: in vivo
assayConditions: mouse, ip
measurementType: LD50 (mg/kg)

INSERT INTO measurements (compound, measurement) VALUES
  ('C[C@H]1C(=O)O[C@]23CC[C@]4(C)C(=O)OC[C@@]45O[C@](c4ccoc4)(C[C@@H]1[C@@]25C)O3 [saudin]', 500);

meta.source: patent US4740521A
